Hey, just so you know, these numbers are from paper PMC4464424.

- system.under.test: T1, Dex-3 (also: 8 peptides conjugated to 50 kDa dextran)
- T1 chain: CGPPPRGPPPR-NH2
- assay.remarks: ITC
Ends that are not written are not given here.
measured.endpoint: Kd
Express the reported value numerically, then name its unit.

Short answer for FBP21 tandem WW (protein) DPSKGRWVEGITSEGYHYYYDLISGASQWEKPEGFQGDLKKTAVKTVWVEGLSEDGFTYYYNTETGESRWEKPDD : Kd was 1.6 µM
